// data source = patent US9216181B2

- System: BMP-2
- test.method.notes: BMP-2 fold change of JHU library compounds, confirmed by qPCR
- Assay type: cell-based, human
- reported.conditions: JHU library compounds; non-treated = 1.00
Counter-ions that a name gives are not always drawn.
measure: Fold change (BMP-2) (fold)
I only need the number, in fold, no unit after it.

Here's what some known entries look like.
>>> recorded_result("Oc1ccc(CCN2CCC(Nc3nc4ccccc4n3Cc3ccc(F)cc3)CC2)cc1")
75.00
>>> recorded_result("O=P([O-])([O-])OC1C(OP(=O)([O-])[O-])C(OP(=O)([O-])[O-])C(OP(=O)([O-])[O-])C(OP(=O)([O-])[O-])C1OP(=O)([O-])[O-].[Na+].[Na+].[Na+].[Na+].[Na+].[Na+].[Na+].[Na+].[Na+].[Na+].[Na+].[Na+] (stereo not drawn) [Phytic acid, dodecasodium salt hydrate]")
15.00
>>> recorded_result("CC[C@H](C)C(=O)O[C@H]1C[C@@H](C)C=C2C=C[C@H](C)[C@H](CC[C@@H]3C[C@@H](O)CC(=O)O3)[C@H]21")
182.00
>>> recorded_result("CC[C@]1(O)C[C@H]2CN(CCc3c([nH]c4ccccc34)[C@@](C(=O)OC)(c3cc4c(cc3OC)N(C=O)[C@H]3[C@@](O)(C(=O)OC)[C@H](OC(C)=O)[C@]5(CC)C=CCN6CC[C@]43[C@@H]65)C2)C1 [Vincristine sulfate]")
57.00
>>> recorded_result("Nc1c2ccccc2nc2ccccc12")
5762.00

Switching to the query record.
Inquiry: Fold change (BMP-2) lookup needed for C=C(C)[C@H]1Cc2c(ccc3c2O[C@@H]2COc4cc(OC)c(OC)cc4[C@@H]2C3=O)O1 , thanks.
Reply text: 61.00

* * *

- System: BMP-2
- test.method.notes: BMP-2 fold change of JHU library compounds, confirmed by qPCR
- Type: cell-based, human
- reported.conditions: JHU library compounds; non-treated = 1.00
Reported Fold change (BMP-2) by item:

Previously resolved entries follow.
>>> recorded_result("CC[C@@H](C(=O)[C@@H](C)[C@@H](O)[C@H](C)CCc1ccc(C)c(O)c1C(=O)[O-])[C@H]1O[C@](CC)([C@H]2CC[C@](O)(CC)[C@H](C)O2)C[C@@H]1C.[Na+] [Laslocid Sodium]")
"4.00 fold"
>>> recorded_result("COC(=O)Nc1nc2cc(C(=O)c3ccc(F)cc3)ccc2[nH]1")
"10.00 fold"
>>> recorded_result("Cc1cc(/C=C/c2ccc3cc(N(C)C)ccc3[n+]2C)c(C)n1-c1ccccc1 [Pyrvinium pamoate]")
"398.00 fold"

We next turn to a different molecule, shown below.
Inquiry: Field request: Fold change (BMP-2) | item: CCN(CC)CCCC(C)Nc1c2ccc(Cl)cc2nc2ccc(OC)cc12 (stereo not shown)
Reply text: 722.00 fold

* * *

- Tested on: BMP-2
- test.method.notes: BMP-2 fold change of JHU library compounds, confirmed by qPCR
- Assay type: cell-based, human
- reported.conditions: JHU library compounds; non-treated = 1.00
- Excerpt: To further verify the technique, a 2T3 mouse pre-osteoblast cell line derived from calvaria courtesy of Dr. Steve Harris, UTHSCSA, was utilized to visually screen the compounds of the BIOMOL library and JHU libraries, purchased from John Hopkins University including 2387 compounds (solution in wells). Specifically, Murine 2T3 were thawed from one frozen cryovial and re-seeded into two T-75 tissue culture flasks grown in Alpha MEM with 10% FBS, Glutamine, and Pen/Strip antibiotics. […]
Counter-ions that a name gives are not always drawn.
measure: Fold change (BMP-2)

Inquiry: # lookup: Fold change (BMP-2) of CC[C@H]1CN2CCc3cc(OC)c(OC)cc3[C@@H]2C[C@@H]1C[C@H]1NCCc2cc(OC)c(OC)cc21 [Emetine]
Reply text: 220.00 fold

Inquiry: Need Fold change (BMP-2), item COc1cc(NS(C)(=O)=O)ccc1Nc1c2ccccc2nc2ccccc12 [Amsacrine]
Reply text: 85.00 fold

Inquiry: I have this compound here, C[CH2][Hg][S]c1ccccc1C(=O)[O-].[Na+] [THIMEROSAL] , and I need its recorded Fold change (BMP-2).
Reply text: 23.00 fold

Inquiry: Any idea what Fold change (BMP-2) was measured for CCC1=C[C@@H]2CN(C1)Cc1c([nH]c3ccccc13)[C@@](C(=O)OC)(c1cc3c(cc1OC)N(C)[C@H]1[C@@](O)(C(=O)OC)[C@H](OC(C)=O)[C@]4(CC)C=CCN5CC[C@]31[C@@H]54)C2 [Vinorelbine tartrate] ?
Reply text: 803.00 fold

Inquiry: Tell me the measured Fold change (BMP-2) of CN(C)C(=S)SSC(=S)N(C)C [THIRAM] , please.
Reply text: 36.00 fold

Inquiry: What Fold change (BMP-2) value was documented for this compound, CC[C@@]1(O)C(=O)OCc2c1cc1n(c2=O)Cc2cc3c(CN(C)C)c(O)ccc3nc2-1 [Topotecan] ?
Reply text: 365.00 fold

Inquiry: Fill blank: measured Fold change (BMP-2) of the compound O=[N+]([O-])c1ccc(O)c2ncccc12 [Nitroxoline (8-hydroxy 5-nitroquinoline)] is ____.
Reply text: 18.00 fold
